Target: T1, hGPVI-hFc fusion protein (human)
T1 construct: also called GPVI-Fc; human GPVI-Fc fusion protein
Assay: DELFIA competition assay: Fab preincubated with GPVI-Fc (3 µg/ml), binding to collagen-coated plate, Test 1
Assign IC50 to each entry below.
Answers are plain numbers, in µg/mL.

INSERT INTO results (binder, recorded_endpoint, number) VALUES
  ('humanized anti-GPVI Fab VL2/VH2 (Fab, V domains shown, Recombinant Fab: VH fused to CH1 of human IGHG1 (Q569F4), HC ends in DKTHT; VL fused to human constant kappa (Q502W4); also called VL2 with VH2) VH: QVQLQESGPGLVAPSQSLSITCTVSGFSLTGYGVNWVRQPPSRGLEWLGMIWGDGSTDYQSTLKSRLSISKDNSKSQVFLKMNSLTTDDTARYYCARDLPMDYWGQGTSVTVSS VL: DIQMTQSPSSLSASVGGRVTITCKASQDINKYIAWYQHKPGKGPSLLIHYTSTLQPGVPSRFSGSGSGRDYSFSISNLQPEDIATYYCLQYAHLLTFGGGTKLEIKR', 'IC50', 0.81),
  ('humanized anti-GPVI Fab VL1/VH3 (Fab, V domains shown, Recombinant Fab: VH fused to CH1 of human IGHG1 (Q569F4), HC ends in DKTHT; VL fused to human constant kappa (Q502W4); also called VL1 with VH3) VH: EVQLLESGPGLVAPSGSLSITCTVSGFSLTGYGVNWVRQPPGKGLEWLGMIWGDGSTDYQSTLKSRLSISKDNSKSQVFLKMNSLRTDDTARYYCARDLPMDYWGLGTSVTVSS VL: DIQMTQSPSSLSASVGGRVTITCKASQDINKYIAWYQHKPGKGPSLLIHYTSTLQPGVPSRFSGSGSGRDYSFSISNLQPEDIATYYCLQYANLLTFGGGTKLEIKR', 'IC50', 0.63);

[in] Requested field: IC50. Item: humanized anti-GPVI Fab VL1/VH5 (Fab, V domains shown, Recombinant Fab: VH fused to CH1 of human IGHG1 (Q569F4), HC ends in DKTHT; VL fused to human constant kappa (Q502W4); also called VL1 with VH5) VH: QVQLQESGPGLVAPSQSLSITCTVSGFSLTGYGVNWVRQPPSRGLEWLGMIWGDGSTDYQSTLKSRLSISKDNSKSQVFLKMNSLTTDDTARYYCARDLPMDEWGQGTSVTVSS VL: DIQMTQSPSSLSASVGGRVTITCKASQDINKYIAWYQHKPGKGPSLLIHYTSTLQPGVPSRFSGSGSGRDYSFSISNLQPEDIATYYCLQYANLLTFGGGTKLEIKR
[out] 1.41
